These data points were gathered from patent US12110289B2.

Test system: Lung cancer cell line NCI-H358 containing KRas G12C mutation
Assay: Assay for cell proliferation (Cell-titer Glo, 5 days)
Type: cell-based, human
Conditions: Homo sapiens, NCI-H358, 120 h, NCI-H358, 5 days, Cell-titer Glo; read-out: IC50 (nM), Inhibition of NCI-H358 Cell Proliferation

compound	quantity_unit	reported_relation	IC50
C=CC(=O)N1CCN(c2nc(=O)n(-c3c(C(C)C)nc(N4CCNCC4)nc3C(C)C)c3nc(-c4c(N)cccc4F)c(Cl)cc23)[C@@H](C)C1	nM	=	5.9
COC/C=C/C(=O)N1C[C@H](C)N(c2nc(=O)n(-c3c(C4CC4)ncnc3C3CC3)c3nc(-c4c(N)cccc4F)c(Cl)cc23)C[C@H]1C	nM	=	58.7
C=CC(=O)N1CCN(c2nc(=O)n(-c3c(C4CC4)ncnc3C3CC3)c3nc(-c4cccc5[nH]nc(N)c45)c(Cl)cc23)[C@@H](C)C1	nM	=	661
C=CC(=O)N1CCN(c2nc(=O)n(-c3c(C(C)C)nc(OC4CCN(C)C4)nc3C(C)C)c3nc(-c4ccccc4F)c(Cl)cc23)[C@@H](C)C1 (stereo partly drawn)	nM	=	14.4
C=CC(=O)N1CCN(c2nc(=O)n(-c3c(C4CC4)ncnc3C3CC3)c3nc(-c4c(O)cccc4F)c(Cl)cc23)[C@@H](C)C1	nM	=	6.1
C=CC(=O)N1C[C@H](C)N(c2nc(=O)n(-c3c(C4CC4)ncnc3C3CC3)c3nc(-c4ccccc4F)c(Cl)cc23)C[C@H]1C	nM	=	8.7
C=CC(=O)N1C[C@H](C)N(c2nc(=O)n(-c3c(C(C)C)nc(C(=O)O)nc3C(C)C)c3nc(-c4ccccc4F)c(F)cc23)C[C@H]1C	nM	>	3000
C=CC(=O)N1CCN(c2nc(=O)n(-c3c(C(C)C)nc(N)nc3C(C)C)c3nc(-c4c(O)cccc4F)c(F)cc23)[C@@H](C)C1	nM	=	46.5
C=CC(=O)N1C[C@H](C)N(c2nc(=O)n(-c3c(F)cc4c(ncn4C)c3C(C)C)c3nc(-c4c(O)cccc4F)c(Cl)cc23)C[C@H]1C	nM	=	1.5
C=CC(=O)N1C[C@H](C)N(c2nc(=O)n(-c3c(C(C)C)nc(N4CCNCC4)nc3C(C)C)c3nc(-c4ccccc4F)c(F)cc23)C[C@H]1C	nM	=	37.5
C=CC(=O)N1CCN(c2nc(=O)n(-c3c(C(C)C)nc(C)nc3C(C)C)c3nc(-c4c(O)cccc4F)c(F)cc23)[C@@H](C)C1	nM	=	8.6
C=CC(=O)N1CCN(c2nc(=O)n(-c3c(C4CC4)nc(N4CCN(C)CC4)nc3C3CC3)c3nc(-c4c(N)cccc4F)c(Cl)cc23)[C@@H](C)C1	nM	=	1.8
